Values from ChEMBL document CHEMBL3286181

- tested_system: Human immunodeficiency virus type 1 integrase (Human immunodeficiency virus 1)
- Sequence (Q7ZJM1 whole entry): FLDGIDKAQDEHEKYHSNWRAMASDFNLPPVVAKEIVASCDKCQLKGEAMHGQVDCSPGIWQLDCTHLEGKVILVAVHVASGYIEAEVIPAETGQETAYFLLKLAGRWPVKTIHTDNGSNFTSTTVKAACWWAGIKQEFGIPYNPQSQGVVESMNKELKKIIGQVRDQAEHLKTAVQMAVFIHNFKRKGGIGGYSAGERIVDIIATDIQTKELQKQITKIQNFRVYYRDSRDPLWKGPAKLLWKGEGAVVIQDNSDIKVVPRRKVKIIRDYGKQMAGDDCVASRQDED
- assay_protocol: Inhibition of recombinant HIV1 integrase bound with donor DNA-SPA beads using [3H] target DNA as substrate assessed as strand transfer activity preincubated for 60 mins followed by substrate addition measured after 25 to 45 mins
Exercise: for every item that follows, state its recorded pIC50.
Interpret pIC50 as the negative base-10 log of the concentration measured in mol/L.

Item: O=c1nc(NCC2CC2)c2cccnc2n1O | pIC50: 5.41

pIC50 for O=c1nc(Nc2ccc(-c3ccccc3)cc2)c2cccnc2n1O is 6.10

// pIC50 value for O=c1nc(Nc2ccc(-c3ccncc3)cc2)c2cccnc2n1O : 5.70

For this compound ( O=c1nc(NCc2cccc(N3CCOCC3)c2)c2cccnc2n1O ), measured pIC50 is 5.70

Record summary for O=c1nc(NCc2ccc(F)cc2)c2cccnc2n1O : reported pIC50 = 5.50

Given item O=c1nc(Nc2ccc(CN3CCOCC3)cc2)c2cccnc2n1O , the value recorded as its pIC50 is 5.89
